Recorded values, source paper PMC8528301.

- measurement-notes: Dasatinib single oral gavage plasma pharmacokinetics (NLME modeling)
- Type: in vivo, mouse
- test-conditions: male, C57BL/6, mouse, plasma, oral, 10 mg/kg, GROUP:VD3 Suf, SEX:M, OCC 2, time 8; read-out: DV (dasatinib plasma concentration)
assay-readout: concentration at 8 h

What concentration at 8 h value was documented for this molecule, Cc1nc(Nc2ncc(C(=O)Nc3c(C)cccc3Cl)s2)cc(N2CCN(CCO)CC2)n1 [dasatinib] ? 20.4 ng/mL

----------
- measurement-notes: Plasma DEX concentrations on discontinuous oral DEX regimen in drinking water (Fig 3)
- Assay type: in vivo, mouse
- test-conditions: female, C57BL/6, mouse, plasma, oral, 8 mg/L, Dexamethasone conc, individual mouse; VD3 sufficient (MRE); D3.5
assay-readout: concentration at 3.5 day
Kindly write the number and append the unit.

What concentration at 3.5 day value was documented for this compound, "C[C@@H]1C[C@H]2[C@@H]3CCC4=CC(=O)C=C[C@]4(C)[C@@]3(F)[C@@H](O)C[C@]2(C)[C@@]1(O)C(=O)CO" ? 95.6 nM

----------
- measurement-notes: Dasatinib single oral gavage plasma pharmacokinetics (NLME modeling)
- Type: in vivo, mouse
- test-conditions: female, C57BL/6, mouse, plasma, oral, 10 mg/kg, GROUP:VD3 Suf, SEX:F, OCC 1, time 16; read-out: DV (dasatinib plasma concentration)
assay-readout: concentration at 16 h (ng/mL)
The answer is to be given in ng/mL; state only the numeric part.

What concentration at 16 h value was documented for this molecule, Cc1nc(Nc2ncc(C(=O)Nc3c(C)cccc3Cl)s2)cc(N2CCN(CCO)CC2)n1 [dasatinib] ? 2.06

----------
- measurement-notes: Dasatinib single oral gavage plasma pharmacokinetics (NLME modeling)
- Format: in vivo, mouse
- test-conditions: female, C57BL/6, mouse, plasma, oral, 10 mg/kg, GROUP:VD3 Def, SEX:F, OCC 2, time 0.5; read-out: DV (dasatinib plasma concentration)
assay-readout: concentration at 0.5 h (ng/mL)
The answer is to be given in ng/mL; state only the numeric part.

What concentration at 0.5 h value was documented for this molecule, "Cc1nc(Nc2ncc(C(=O)Nc3c(C)cccc3Cl)s2)cc(N2CCN(CCO)CC2)n1" ? 188

----------
- measurement-notes: Repeated discontinuous oral DEX PK study (another 60 mice)
- Assay type: in vivo, mouse
- test-conditions: female, C57BL/6, mouse, plasma, oral, 8 mg/L, DEX conc, Average ± S.D. of quantifiable samples, plasma; repeated study; VD3 Sufficient, F; Day 10.5; n=3
assay-readout: concentration at 10.5 day (nM)
The answer is to be given in nM; state only the numeric part.

What concentration at 10.5 day value was documented for this compound, "C[C@@H]1C[C@H]2[C@@H]3CCC4=CC(=O)C=C[C@]4(C)[C@@]3(F)[C@@H](O)C[C@]2(C)[C@@]1(O)C(=O)CO" ? 7.71

----------
- measurement-notes: Dasatinib single oral gavage plasma pharmacokinetics (NLME modeling)
- Format: in vivo, mouse
- test-conditions: female, C57BL/6, mouse, plasma, oral, 10 mg/kg, GROUP:VD3 Suf, SEX:F, OCC 2, time 1; read-out: DV (dasatinib plasma concentration)
assay-readout: concentration at 1 h

What concentration at 1 h value was documented for this compound, Cc1nc(Nc2ncc(C(=O)Nc3c(C)cccc3Cl)s2)cc(N2CCN(CCO)CC2)n1 [dasatinib] ? > 500 ng/mL
